- Test system: E. coli HB4 KPC-2
- PROTOCOL TEXT: MIC of recombinant strains
- Assay type: cell-based
- MEASUREMENT PARAMETERS: Escherichia coli, HB4KPC2; E. coli HB4 expressing KPC-2 in pUCP24
Reported MIC values follow for various compounds
Expressed in µg/mL, but write only the number.

CO/N=C(\C(=O)N[C@@H]1C(=O)N2C(C(=O)[O-])=C(C[N+]3(C)CCCC3)CS[C@H]12)c1csc(N)n1 [FEP, cefepime] | 256

Qu. Report MIC for `C[C@@H](O)[C@H]1C(=O)N2C(C(=O)O)=C(SCCN=CN)C[C@H]12` please.
Ans. 32

Qu. Report MIC for `C[C@H]1[C@H](NC(=O)/C(=N\OC(C)(C)C(=O)O)c2csc(N)n2)C(=O)N1S(=O)(=O)O` please.
Ans. 512

====

- System: ST258/KPC-35 mutant IMI 3.2
- PROTOCOL TEXT: MIC, broth microdilution
- Format: cell-based
- MEASUREMENT PARAMETERS: Klebsiella pneumoniae
ASSAY ENDPOINT: MIC

Please review the following examples before continuing.
C[C@@H](O)[C@H]1C(=O)N2C(C(=O)O)=C(SCCN=CN)C[C@H]12 | 128 µg/mL
CC(C)(O/N=C(\C(=O)N[C@@H]1C(=O)N2C(C(=O)[O-])=C(C[n+]3ccccc3)CS[C@H]12)c1csc(N)n1)C(=O)O | 128 µg/mL
CNC(C)C1CCC(N)C(OC2C(N)CC(N)C(OC3OCC(C)(O)C(NC)C3O)C2O)O1 (stereo not shown) | 4 µg/mL

Now consider a different molecule.
Qu. Report MIC for `C[C@H]1COc2c(N3CCN(C)CC3)c(F)cc3c(=O)c(C(=O)O)cn1c23` please.
Ans. > 8 µg/mL

====

- System: ST512/KPC-31 mutant IMI 3.2
- PROTOCOL TEXT: MIC, broth microdilution
- Format: cell-based
- MEASUREMENT PARAMETERS: Klebsiella pneumoniae
ASSAY ENDPOINT: MIC

Please review the following examples before continuing.
NCC[C@H](O)C(=O)N[C@@H]1C[C@H](N)[C@@H](O[C@H]2O[C@H](CN)[C@@H](O)[C@H](O)[C@H]2O)[C@H](O)[C@H]1O[C@H]1O[C@H](CO)[C@@H](O)[C@H](N)[C@H]1O | > 32 µg/mL
CNC(C)C1CCC(N)C(OC2C(N)CC(N)C(OC3OCC(C)(O)C(NC)C3O)C2O)O1 (stereo not drawn) | 4 µg/mL

Now consider a different molecule.
Qu. Report MIC for CO/N=C(\C(=O)N[C@@H]1C(=O)N2C(C(=O)[O-])=C(C[N+]3(C)CCCC3)CS[C@H]12)c1csc(N)n1 [FEP, cefepime] please.
Ans. > 16 µg/mL

====

- Test system: ST258/KPC-35 mutant IMI 3.2
- PROTOCOL TEXT: MIC, broth microdilution
- Assay type: cell-based
- MEASUREMENT PARAMETERS: Klebsiella pneumoniae
ASSAY ENDPOINT: MIC

Qu. Report MIC for `C[C@@H](O)[C@H]1C(=O)N2C(C(=O)O)=C(S[C@@H]3CN[C@H](C(=O)N(C)C)C3)[C@H](C)[C@H]12` please.
Ans. 64 µg/mL

Qu. Report MIC for `NCC[C@H](O)C(=O)N[C@@H]1C[C@H](N)[C@@H](O[C@H]2O[C@H](CN)[C@@H](O)[C@H](O)[C@H]2O)[C@H](O)[C@H]1O[C@H]1O[C@H](CO)[C@@H](O)[C@H](N)[C@H]1O` please.
Ans. > 32 µg/mL

Qu. Report MIC for CO/N=C(\C(=O)N[C@@H]1C(=O)N2C(C(=O)[O-])=C(C[N+]3(C)CCCC3)CS[C@H]12)c1csc(N)n1 [FEP, cefepime] please.
Ans. > 16 µg/mL
